Conditions: 318.15 K; 101 kPa; Liquid
± gives the expanded uncertainty stated by the source.
Item-by-item account of mass density

MOLECULE	mass density
CCCCCCCCN	761.47 ± 1.1 kg/m3
CCCCCCn1cc[n+](C)c1.F[B-](F)(F)F [1-hexyl-3-methylimidazolium tetrafluoroborate]	1130.49 ± 0.92 kg/m3
CCCCN	714 ± 1.2 kg/m3

Query block: # mass density lookup, item CCCCCCCC[n+]1ccn(C)c1.F[B-](F)(F)F [1-methyl-3-octylimidazolium tetrafluoroborate]
Result block: 1084.17 ± 0.79 kg/m3

====

Entries and their measured speed of sound follow.
Conditions: 318.15 K; 101 kPa; Liquid; Sing-around technique in a fixed-path interferometer
Please reply with the bare figure in m/s and do not write the unit itself.

COMPOUND	READOUT NUMBER
CCCCCCn1cc[n+](C)c1.F[B-](F)(F)F [1-hexyl-3-methylimidazolium tetrafluoroborate]	1447.7

Query block: Would you kindly share the measured speed of sound for `CCCCCCCCN` ?
Result block: 1263.5

Query block: Query (compound): CCCCCCCC[n+]1ccn(C)c1.F[B-](F)(F)F [1-methyl-3-octylimidazolium tetrafluoroborate] ; field requested: speed of sound
Result block: 1428.2

Query block: Query: speed of sound; subject: `CCCCN`
Result block: 1156.2

====

Listing of recorded speed of sound by entry.
Conditions: 308.15 K; 101 kPa; Liquid; Sing-around technique in a fixed-path interferometer
The response must be a number in m/s with no trailing unit.

Consider the worked cases shown below.
COMPOUND	speed of sound / m/s
CCCCN [1-butanamine]	1201.3
CCCCCCn1cc[n+](C)c1.F[B-](F)(F)F [1-hexyl-3-methylimidazolium tetrafluoroborate]	1472
CCCCCCCC[n+]1ccn(C)c1.F[B-](F)(F)F [1-methyl-3-octylimidazolium tetrafluoroborate]	1453.9

Query block: Fill in the blank: the reported speed of sound of CCCCCCCCN [1-octanamine] is ____.
Result block: 1303.1

====

Conditions: 298.15 K; 101 kPa; Liquid; Sing-around technique in a fixed-path interferometer
speed of sound reference
Provide the reading as a plain figure in m/s.

COMPOUND	speed of sound [m/s]
CCCCCCCC[n+]1ccn(C)c1.F[B-](F)(F)F [1-methyl-3-octylimidazolium tetrafluoroborate]	1481.1
CCCCCCCCN	1343.2
CCCCCCn1cc[n+](C)c1.F[B-](F)(F)F [1-hexyl-3-methylimidazolium tetrafluoroborate]	1496.7

Query block: Any idea what its speed of sound is? The compound is `CCCCN`
Result block: 1246.5
